// provenance: the supplement of paper PMC10567573

Listed here are variants together with their documented protein stability index.
B1: POMT2 (parent)
chain: VLRSRIRFIHLVTGCVLGSSGKVL

# Variants of: B1
# protocol summary: protein stability index of a GFP-peptide fusion (GPS, HEK-293T) (PSI 1-6); higher = more stable;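 also: lentivirally expressed fusions sorted by FACS into six bins by GFP to DsRed ratio, PSI derived from sequencing read proportions per bin multiplied by bin number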
# conditions: c terminus: a fixed tail appended
Answer field: number only, no words.

Reported protein stability index for `V12M` was 3.2

Reported protein stability index for `I6R` was 1.78

Reported protein stability index for `F8D` was 1.88

Reported protein stability index for `I9F` was 1.85

Reported protein stability index for `V23D` was 3.41
